- ASSAYED SYSTEM: Polyketide synthase Pks13 (Mycobacterium tuberculosis (strain ATCC 25618 / H37Rv)) (UniProt I6X8D2)
- Sequence (I6X8D2 whole entry): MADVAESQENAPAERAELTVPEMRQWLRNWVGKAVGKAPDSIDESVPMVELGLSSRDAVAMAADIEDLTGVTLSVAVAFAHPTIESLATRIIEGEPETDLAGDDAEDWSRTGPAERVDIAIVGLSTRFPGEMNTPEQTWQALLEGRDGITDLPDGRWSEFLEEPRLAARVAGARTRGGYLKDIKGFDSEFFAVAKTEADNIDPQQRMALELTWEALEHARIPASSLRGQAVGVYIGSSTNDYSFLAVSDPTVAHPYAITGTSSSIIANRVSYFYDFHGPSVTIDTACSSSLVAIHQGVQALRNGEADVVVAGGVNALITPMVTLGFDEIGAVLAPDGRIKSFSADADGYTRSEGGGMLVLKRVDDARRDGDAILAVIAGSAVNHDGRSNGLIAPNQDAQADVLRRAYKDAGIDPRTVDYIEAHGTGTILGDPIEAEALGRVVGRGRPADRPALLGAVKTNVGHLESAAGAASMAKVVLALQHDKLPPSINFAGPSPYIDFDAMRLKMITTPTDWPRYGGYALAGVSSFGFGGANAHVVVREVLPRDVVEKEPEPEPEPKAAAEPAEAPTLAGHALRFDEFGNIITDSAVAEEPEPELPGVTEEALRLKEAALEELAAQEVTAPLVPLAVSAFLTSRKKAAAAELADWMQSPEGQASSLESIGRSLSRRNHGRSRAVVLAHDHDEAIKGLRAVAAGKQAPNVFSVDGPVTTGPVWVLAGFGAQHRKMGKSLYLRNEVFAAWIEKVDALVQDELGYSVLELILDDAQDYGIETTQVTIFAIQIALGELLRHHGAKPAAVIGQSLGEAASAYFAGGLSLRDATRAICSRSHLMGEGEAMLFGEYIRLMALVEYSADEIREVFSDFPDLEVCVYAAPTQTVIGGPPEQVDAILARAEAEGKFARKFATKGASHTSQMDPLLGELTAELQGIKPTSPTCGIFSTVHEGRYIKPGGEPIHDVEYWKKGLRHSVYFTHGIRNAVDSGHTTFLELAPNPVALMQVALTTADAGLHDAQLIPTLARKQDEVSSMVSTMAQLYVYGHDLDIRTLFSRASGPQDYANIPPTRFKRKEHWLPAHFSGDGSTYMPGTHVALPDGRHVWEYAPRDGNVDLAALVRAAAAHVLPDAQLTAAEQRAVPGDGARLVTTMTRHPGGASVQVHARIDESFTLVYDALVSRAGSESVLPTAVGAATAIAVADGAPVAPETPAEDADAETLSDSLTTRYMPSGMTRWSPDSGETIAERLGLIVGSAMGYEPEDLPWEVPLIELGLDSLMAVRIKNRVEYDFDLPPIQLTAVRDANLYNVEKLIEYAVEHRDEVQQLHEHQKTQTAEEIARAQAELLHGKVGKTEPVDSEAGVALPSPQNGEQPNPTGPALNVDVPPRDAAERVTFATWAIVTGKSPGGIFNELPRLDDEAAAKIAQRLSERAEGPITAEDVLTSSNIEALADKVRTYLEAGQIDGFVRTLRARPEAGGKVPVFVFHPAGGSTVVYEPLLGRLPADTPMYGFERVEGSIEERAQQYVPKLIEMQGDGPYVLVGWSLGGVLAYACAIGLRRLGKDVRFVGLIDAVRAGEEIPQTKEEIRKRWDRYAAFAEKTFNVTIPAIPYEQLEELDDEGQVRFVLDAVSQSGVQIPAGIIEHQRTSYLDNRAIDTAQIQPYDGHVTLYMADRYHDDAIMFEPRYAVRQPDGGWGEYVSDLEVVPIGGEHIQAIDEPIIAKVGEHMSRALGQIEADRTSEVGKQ
- RUN DESCRIPTION: Mycobacterium tuberculosis Polyketide synthase 13 Thioesterase (PKS13)
- Type: functional
- Design: scale not given: in the data most compounds retested in dose-response had high values
- EXPERIMENTAL CONDITIONS: 30 µM
In all, about 67,000 compounds went through this assay and about 300 (0.45%) showed an effect of 50% or more. This excerpt belongs to a sample that is enriched for strong results.
// map Percent Effect to label using class A (below -10%), class B (-10% to below 20%), class C (20% or more)

Recorded results for 4 compounds are shown here.
- CC(C)(C)c1cc(NC(=O)CN2CCC(N3CCNC3=O)CC2)on1: class C
- CS(=O)(=O)NCc1cc(-c2cc(F)cc(F)c2)nc(N2CCCC2)n1: class C
- Cc1cccn2c(=O)cc(CSCC(=O)Nc3nnc(C(C)C)s3)nc12: class C
- CC(C)c1nnc(NC(=O)CSCc2cc(=O)n3ccccc3n2)s1: class A

**Q:** Which Percent Effect band matches Cc1noc(C)c1CN1CC[C@H]2C[C@H](c3ccncn3)O[C@@H]2C1 ?
**A:** class A

**Q:** Please answer likewise for CS(=O)(=O)NCc1cc(-c2cc(F)cc(F)c2)nc(N2CC[C@H](O)C2)n1
**A:** class C

**Q:** Please answer likewise for Cc1cc(NC(=O)CN2CCC(N3CCNC3=O)CC2)on1
**A:** class A

**Q:** Please answer likewise for O=C(c1ncccn1)N1C[C@H]2CCC[C@@]2(COCc2ccncc2)C1
**A:** class A

**Q:** Please answer likewise for CS(=O)(=O)NCc1cc(-c2cc(F)cc(F)c2)nc(N2CCOCC2)n1
**A:** class C

**Q:** Please answer likewise for COCCOCC(=O)N1C[C@H]2CC[C@@H]1CN(C1Cc3ccccc3C1)C2
**A:** class A

**Q:** Please answer likewise for Fc1ccc(CN2CCO[C@H]3[C@H](OCCN4CCCC4)CC[C@@H]32)cc1
**A:** class B

----------
- ASSAYED SYSTEM: Polyketide synthase Pks13 (Mycobacterium tuberculosis (strain ATCC 25618 / H37Rv)) (UniProt I6X8D2)
- RUN DESCRIPTION: Mycobacterium tuberculosis Polyketide synthase 13 Thioesterase (PKS13)
- Type: functional
- Parameters: scale not given: in the data most compounds retested in dose-response had high values
- EXPERIMENTAL CONDITIONS: 30 µM
Out of some 67,000 compounds screened, about 300 (0.45%) showed an effect of 50% or more. The entries come from a sample that favours strong results as a whole.
ASSAY READOUT: Percent Effect (%)
Write the answer as a number in %, unit excluded.

Sample records with Percent Effect:
- O=C1C[C@H]2CC[C@@H](CN1)N2C1CCSCC1: -1.94
- CC(O)CN1CCC(CNCc2cccc(C(=O)N(C)C)c2)CC1 (centres undefined): -0.155
- Cn1nccc1NC(=O)c1cccc(CN2C[C@H]3CC[C@@H](C2)N3)c1: -14.8
- CC(O)CN1CCC(CNCc2ccc(C(N)=O)cc2)CC1 (centres undefined): -12.3
- CCCN1CCN(C(=O)c2ccc3ccccc3n2)[C@H]2CS(=O)(=O)C[C@H]21: 11.6
- COC(=O)NCC(=O)NCC(C)(C)c1cccc(Br)c1: -17.5
- CC(C)C(=O)N1C[C@H]2CCCN[C@H]2C1: -32.8
- O=C(N[C@H]1CN[C@H]2CCCO[C@H]21)c1ccno1: -17

**Q:** Sample CC(O)CN1CCC(CNCc2cccc(C(N)=O)c2)CC1 (centres undefined) — what was its Percent Effect?
**A:** 108

FYI, the data here is from ChEMBL document CHEMBL3988442.
